# System tested: TNFα (Homo sapiens, UniProt P01375)
# Sequence (P01375 77-233 limits assumed): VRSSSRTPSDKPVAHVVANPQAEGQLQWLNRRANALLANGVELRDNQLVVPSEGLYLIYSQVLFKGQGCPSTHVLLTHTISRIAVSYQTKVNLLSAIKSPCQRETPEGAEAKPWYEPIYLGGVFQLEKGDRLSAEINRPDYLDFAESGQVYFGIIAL
# Method summary: TNF-Induced HEK-Blue Assay
# Assay type: cell-based
# Settings: HEK-Blue-CD40L cells, NF-kB-driven secreted alkaline phosphatase reporter; TNFα 0.5 ng/ml; 18 h; read-out: TNF induced HEK-Blue assay IC50 value
pIC50: −log10 of the molar value. Positions of bridges follow the written chain, without caps; N, C: chain ends. Non-standard residues stand in square brackets, D forms with d. Residues, ends and D or L forms follow the SMILES beside them. Ala(morpholin-4-yl) = N[C@@H](CN1CCOCC1)C(=O)O; Bip = N[C@@H](Cc1ccc(-c2ccccc2)cc1)C(=O)O; Val(3-OH) = CC(C)(O)[C@H](N)C(=O)O; 3Pal = N[C@@H](Cc1cccnc1)C(=O)O; Sar = CNCC(=O)O
Field: pIC50. Provide a value for each of the molecules that follow.

- Molecule: "CC(C)C[C@@H]1NC(=O)[C@H](CCCNC(=N)N)NC(=O)[C@H](C(C)C)NC(=O)[C@@H]2CCCN2C(=O)[C@H](C(C)C)NC(=O)[C@H](CCCNC(=N)N)NC(=O)[C@H](CC(=O)O)NC(=O)[C@H](Cc2ccc(O)cc2)NC(=O)CN(C)C(=O)[C@H](Cc2ccc(-c3ccccc3)cc2)NC(=O)[C@H](Cc2ccc(-c3ccccc3)cc2)NC(=O)[C@H](C(C)(C)O)NC(=O)CSC[C@@H](C(=O)NCC(N)=O)NC1=O [Example 65] ({CH2CO}-[Val(3-OH)][Bip][Bip][Sar]YDRVPVRLCG-NH2; thioether N-13)"
  pIC50: "6.70 to 7.30"

Note: attention shifts to another entry.
Asked: Which pIC50 value belongs to CC(C)C[C@@H]1NC(=O)[C@H](Cc2ccc(O)cc2)NC(=O)[C@H](C(C)C)NC(=O)[C@@H]2CCCN2C(=O)[C@H](Cc2cccnc2)NC(=O)[C@@H](CCCNC(=N)N)NC(=O)[C@H](CC(=O)O)NC(=O)[C@@H]2CCCN2C(=O)CN(C)C(=O)[C@H](Cc2ccc(-c3ccccc3)cc2)NC(=O)[C@H](Cc2ccc(-c3ccccc3)cc2)NC(=O)[C@H](CN2CCOCC2)NC(=O)CSC[C@@H](C(=O)NCC(N)=O)NC1=O [Example 119] ({CH2CO}-[Ala(morpholin-4-yl)][Bip][Bip][Sar]PD[dR][3Pal]PVYLCG-NH2; thioether N-13) ?
Given back: 5.70 to 6.70
